FYI, the data here is from ChEMBL document CHEMBL1144019.

- Method: Stability in presence of AmpC beta-lactamase
- Type: ADME
Measured Quantity: Stability

[ask] Fill in reported Stability for this entry: CNCCCn1ccc2c1ccc[n+]2CC1=C(C(=O)[O-])N2C(=O)[C@@H](NC(=O)/C(=N\O[C@@H](C)C(=O)O)c3nc(N)sc3Cl)[C@H]2SC1
[reply] 78.4%

[ask] Fill in reported Stability for this entry: CNCCCn1c(N)nc2c1ccc[n+]2CC1=C(C(=O)[O-])N2C(=O)[C@@H](NC(=O)/C(=N\O[C@@H](C)C(=O)O)c3nc(N)sc3Cl)[C@H]2SC1
[reply] 90.2%

[ask] Fill in reported Stability for this entry: CC(C)(O/N=C(\C(=O)N[C@@H]1C(=O)N2C(C(=O)[O-])=C(C[n+]3ccccc3)CS[C@H]12)c1csc(N)n1)C(=O)O
[reply] 18%

[ask] Fill in reported Stability for this entry: CO/N=C(\C(=O)N[C@@H]1C(=O)N2C(C(=O)[O-])=C(C[N+]3(C)CCCC3)CS[C@H]12)c1csc(N)n1
[reply] 12.9%

[ask] Fill in reported Stability for this entry: CNCCNc1cc[n+](CC2=C(C(=O)[O-])N3C(=O)[C@@H](NC(=O)/C(=N\O[C@@H](C)C(=O)O)c4nc(N)sc4Cl)[C@H]3SC2)cc1
[reply] 80.3%

---

- Tested on: Enterobacter cloacae
- Method: Antibacterial activity against Enterobacter cloacae ATCC 13047 by standard serial agar dilution method
- Format: functional
Hi there, I'd appreciate the recorded MIC for every entry that follows.
State just the number; it will be interpreted in µg/mL.

[ask] Fill in reported MIC for this entry: CNCCCn1c(N)nc2c1ccc[n+]2CC1=C(C(=O)[O-])N2C(=O)[C@@H](NC(=O)/C(=N\O[C@@H](C)C(=O)O)c3nc(N)sc3Cl)[C@H]2SC1
[reply] 0.5

[ask] Fill in reported MIC for this entry: CC(=O)NCCn1ccc2c1ccc[n+]2CC1=C(C(=O)[O-])N2C(=O)[C@@H](NC(=O)/C(=N\O[C@@H](C)C(=O)O)c3nc(N)sc3Cl)[C@H]2SC1
[reply] 0.5

[ask] Fill in reported MIC for this entry: CNCCn1ccc2c1ccc[n+]2CC1=C(C(=O)[O-])N2C(=O)[C@@H](NC(=O)/C(=N\O[C@@H](C)C(=O)O)c3nc(N)sc3Cl)[C@H]2SC1
[reply] 0.5

---

Hi there, I'd appreciate the recorded MIC for every entry that follows.
- System: Moraxella catarrhalis
- Method: Antibacterial activity against Moraxella catarrhalis ATCC 43617 by standard serial agar dilution method
- Format: functional
Enter the number, and then the unit.

[ask] Recall the reported MIC of C[C@H](O/N=C(\C(=O)N[C@@H]1C(=O)N2C(C(=O)[O-])=C(C[n+]3cccc4c3nc(N)n4C3CCNCC3)CS[C@H]12)c1nc(N)sc1Cl)C(=O)O when tested on Moraxella catarrhalis.
[reply] 0.016 µg/mL

[ask] Recall the reported MIC of C[C@H](N)CCn1c(N)nc2c1ccc[n+]2CC1=C(C(=O)[O-])N2C(=O)[C@@H](NC(=O)/C(=N\O[C@@H](C)C(=O)O)c3nc(N)sc3Cl)[C@H]2SC1 when tested on Moraxella catarrhalis.
[reply] 0.008 µg/mL

[ask] Recall the reported MIC of C[C@H](O/N=C(\C(=O)N[C@@H]1C(=O)N2C(C(=O)[O-])=C(C[n+]3cccc4c3ccn4CC(N)=O)CS[C@H]12)c1nc(N)sc1Cl)C(=O)O when tested on Moraxella catarrhalis.
[reply] 0.016 µg/mL

[ask] Recall the reported MIC of CNCCNc1cc[n+](CC2=C(C(=O)[O-])N3C(=O)[C@@H](NC(=O)/C(=N\O[C@@H](C)C(=O)O)c4nc(N)sc4Cl)[C@H]3SC2)cc1 when tested on Moraxella catarrhalis.
[reply] 0.032 µg/mL

[ask] Recall the reported MIC of CNCCn1ccc2c1ccc[n+]2CC1=C(C(=O)[O-])N2C(=O)[C@@H](NC(=O)/C(=N\O[C@@H](C)C(=O)O)c3nc(N)sc3Cl)[C@H]2SC1 when tested on Moraxella catarrhalis.
[reply] 0.032 µg/mL

[ask] Recall the reported MIC of C[C@H](O/N=C(\C(=O)N[C@@H]1C(=O)N2C(C(=O)[O-])=C(C[n+]3cccc4c3ccn4CCO)CS[C@H]12)c1nc(N)sc1Cl)C(=O)O when tested on Moraxella catarrhalis.
[reply] 0.016 µg/mL

[ask] Recall the reported MIC of CC(=O)NCCn1ccc2c1ccc[n+]2CC1=C(C(=O)[O-])N2C(=O)[C@@H](NC(=O)/C(=N\O[C@@H](C)C(=O)O)c3nc(N)sc3Cl)[C@H]2SC1 when tested on Moraxella catarrhalis.
[reply] 0.032 µg/mL

[ask] Recall the reported MIC of CNCCn1ncc2c1ccc[n+]2CC1=C(C(=O)[O-])N2C(=O)[C@@H](NC(=O)/C(=N\O[C@@H](C)C(=O)O)c3nc(N)sc3Cl)[C@H]2SC1 when tested on Moraxella catarrhalis.
[reply] 0.032 µg/mL

[ask] Recall the reported MIC of C[C@H](O/N=C(\C(=O)N[C@@H]1C(=O)N2C(C(=O)[O-])=C(C[n+]3cccc4[nH]ccc43)CS[C@H]12)c1nc(N)sc1Cl)C(=O)O when tested on Moraxella catarrhalis.
[reply] 0.016 µg/mL

[ask] Recall the reported MIC of CNCCCn1c(N)cc2c1ccc[n+]2CC1=C(C(=O)[O-])N2C(=O)[C@@H](NC(=O)/C(=N\O[C@@H](C)C(=O)O)c3nc(N)sc3Cl)[C@H]2SC1 when tested on Moraxella catarrhalis.
[reply] 0.016 µg/mL

[ask] Recall the reported MIC of CNCCn1ccc2c[n+](CC3=C(C(=O)[O-])N4C(=O)[C@@H](NC(=O)/C(=N\O[C@@H](C)C(=O)O)c5nc(N)sc5Cl)[C@H]4SC3)ccc21 when tested on Moraxella catarrhalis.
[reply] 0.032 µg/mL

[ask] Recall the reported MIC of CC(C)(O/N=C(\C(=O)N[C@@H]1C(=O)N2C(C(=O)[O-])=C(C[n+]3ccccc3)CS[C@H]12)c1csc(N)n1)C(=O)O when tested on Moraxella catarrhalis.
[reply] 0.063 µg/mL
